studySystem: Nurr1 (Homo sapiens, UniProt P43354)
Construct: Nurr1 (uniprot entry: hNURR1–P43354, residues 360–598); expressed in transfected cells; host or cells: HEK293T
Sequence (P43354 360-598): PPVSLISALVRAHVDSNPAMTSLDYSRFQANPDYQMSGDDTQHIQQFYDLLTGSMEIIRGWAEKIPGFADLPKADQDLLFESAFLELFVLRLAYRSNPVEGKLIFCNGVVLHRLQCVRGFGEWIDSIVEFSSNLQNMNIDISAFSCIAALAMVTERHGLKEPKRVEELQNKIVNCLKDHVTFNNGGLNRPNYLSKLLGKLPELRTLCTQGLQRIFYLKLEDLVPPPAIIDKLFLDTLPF
assayProcedure: Gal4-Nurr1 hybrid reporter gene assay in HEK293T cells
Type: cell-based
conditions: 30 µM; primary screen; n ≥ 2; ^# not significant vs VP16 control
observationType: Nurr1 activity 30μM (mean fold activation) (fold)
Write the value in fold as a bare number.

Completed entries (count: 3):
{"compound": "Cc1cc(NC(=O)C2=C(O)c3ccccc3S(=O)(=O)N2C)no1", "studySystem": "Nurr1 (Homo sapiens, UniProt P43354)", "resultNumber": 0.90}
{"compound": "Cc1onc(-c2ccccc2)c1-c1ccc(S(N)(=O)=O)cc1", "studySystem": "Nurr1 (Homo sapiens, UniProt P43354)", "resultNumber": 0.54}
{"compound": "CS(=O)(=O)c1ccc(C2=C(c3ccccc3)C(=O)OC2)cc1", "studySystem": "Nurr1 (Homo sapiens, UniProt P43354)", "resultNumber": 0.92}

QUERY: Give me measured Nurr1 activity 30μM (mean fold activation), please, for this compound: Cc1ccc(C(=O)c2ccc(CC(=O)O)n2C)cc1
RESULT: 1.13

QUERY: Give me measured Nurr1 activity 30μM (mean fold activation), please, for this compound: COc1ccc(-c2noc(CC(=O)O)c2-c2ccc(OC)cc2)cc1
RESULT: 0.94

QUERY: Give me measured Nurr1 activity 30μM (mean fold activation), please, for this compound: CC(C(=O)O)c1cccc(Oc2ccccc2)c1 (centres unmarked)
RESULT: 0.91

QUERY: Give me measured Nurr1 activity 30μM (mean fold activation), please, for this compound: CS(=O)(=O)Nc1ccc([N+](=O)[O-])cc1Oc1ccccc1
RESULT: 0.89

QUERY: Give me measured Nurr1 activity 30μM (mean fold activation), please, for this compound: Nc1c(CC(=O)O)cccc1C(=O)c1ccc(Br)cc1
RESULT: 1.12

QUERY: Give me measured Nurr1 activity 30μM (mean fold activation), please, for this compound: CCCCC1C(=O)N(c2ccccc2)N(c2ccccc2)C1=O
RESULT: 1.04

QUERY: Give me measured Nurr1 activity 30μM (mean fold activation), please, for this compound: CC(C(=O)O)c1ccc(C(=O)c2ccccc2)s1 (centres unmarked)
RESULT: 1.46

QUERY: Give me measured Nurr1 activity 30μM (mean fold activation), please, for this compound: CC(C)Cc1ccc(C(C)C(=O)O)cc1 (centres unmarked)
RESULT: 0.90

QUERY: Give me measured Nurr1 activity 30μM (mean fold activation), please, for this compound: CN1C(C(=O)Nc2ccccn2)=C(O)c2sc(Cl)cc2S1(=O)=O
RESULT: 0.86

###

studySystem: NOR1 (Homo sapiens, UniProt Q92570)
Construct: NOR1 (isoform alpha; uniprot entry: hNOR1–Q92570-1, residues 393–626); expressed in transfected cells; host or cells: HEK293T
Sequence (Q92570 393-626): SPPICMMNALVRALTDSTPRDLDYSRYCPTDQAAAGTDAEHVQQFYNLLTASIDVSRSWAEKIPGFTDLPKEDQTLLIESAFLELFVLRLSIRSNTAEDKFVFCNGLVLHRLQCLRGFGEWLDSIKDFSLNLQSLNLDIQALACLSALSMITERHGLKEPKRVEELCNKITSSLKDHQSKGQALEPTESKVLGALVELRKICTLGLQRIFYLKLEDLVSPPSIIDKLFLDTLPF
assayProcedure: Gal4-NOR1 hybrid reporter gene assay in HEK293T cells
Format: cell-based
conditions: 10 µM; primary screen; n ≥ 2; ^# not significant vs VP16 control
// Nor1 activity 10μM (mean fold activation) lookup, one value per entry
Write the value in fold as a bare number.

{"compound": "CC(C(=O)O)c1ccc2c(c1)CC(=O)c1ccccc1S2 (stereo not drawn)", "resultNumber": 0.89}
{"compound": "O=C(OCCOCCO)c1ccccc1Nc1cccc(C(F)(F)F)c1 [etofenamate]", "resultNumber": 1.07}
{"compound": "O=C(O)Cc1ccccc1Nc1c(Cl)cccc1Cl", "resultNumber": 1.11}

QUERY: Give me measured Nor1 activity 10μM (mean fold activation), please, for this compound: CS(=O)(=O)Nc1ccc([N+](=O)[O-])cc1Oc1ccccc1
RESULT: 0.91

QUERY: Give me measured Nor1 activity 10μM (mean fold activation), please, for this compound: COc1ccc2cc(CCC(C)=O)ccc2c1
RESULT: 1.69

QUERY: Give me measured Nor1 activity 10μM (mean fold activation), please, for this compound: COc1ccc2c(c1)c(CC(=O)O)c(C)n2C(=O)c1ccc(Cl)cc1
RESULT: 0.87

QUERY: Give me measured Nor1 activity 10μM (mean fold activation), please, for this compound: COc1ccc(-c2noc(CC(=O)O)c2-c2ccc(OC)cc2)cc1
RESULT: 1.00

QUERY: Give me measured Nor1 activity 10μM (mean fold activation), please, for this compound: O=C(O)c1ccccc1Nc1cccc(C(F)(F)F)c1
RESULT: 1.36

QUERY: Give me measured Nor1 activity 10μM (mean fold activation), please, for this compound: O=C(O)COC(=O)Cc1ccccc1Nc1c(Cl)cccc1Cl
RESULT: 0.94

QUERY: Give me measured Nor1 activity 10μM (mean fold activation), please, for this compound: Cc1ccc(C(=O)c2ccc(CC(=O)O)n2C)cc1
RESULT: 1.08

###

studySystem: NOR1 (Homo sapiens, UniProt Q92570)
Construct: NOR1 (isoform alpha; uniprot entry: hNOR1–Q92570-1, residues 393–626); expressed in transfected cells; host or cells: HEK293T
assayProcedure: Gal4-NOR1 hybrid reporter gene assay in HEK293T cells
Format: cell-based
conditions: 30 µM; primary screen; n ≥ 2; ^# not significant vs VP16 control
// Nor1 activity 30μM (mean fold activation) lookup, one value per entry
Write the value in fold as a bare number.

{"compound": "Cc1ccc(C(=O)c2ccc(CC(=O)O)n2C)cc1 [tolmetin]", "readoutUnit": "fold", "resultNumber": 1.00}

QUERY: Give me measured Nor1 activity 30μM (mean fold activation), please, for this compound: O=C(O)c1ccccc1O [salicylic acid]
RESULT: 0.99

QUERY: Give me measured Nor1 activity 30μM (mean fold activation), please, for this compound: CCCCC1C(=O)N(c2ccccc2)N(c2ccccc2)C1=O [phenylbutazone]
RESULT: 1.02

QUERY: Give me measured Nor1 activity 30μM (mean fold activation), please, for this compound: CN1C(C(=O)Nc2ccccn2)=C(O)c2sccc2S1(=O)=O [tenoxicam]
RESULT: 0.90

QUERY: Give me measured Nor1 activity 30μM (mean fold activation), please, for this compound: CC(=O)Oc1ccccc1C(=O)O [acetylsalicylic acid]
RESULT: 0.93

###

studySystem: Nur77 (Homo sapiens, UniProt P22736)
Construct: Nur77 (uniprot entry: hNUR77–P22736, residues 358–598); expressed in transfected cells; host or cells: HEK293T
Sequence (P22736 358-598): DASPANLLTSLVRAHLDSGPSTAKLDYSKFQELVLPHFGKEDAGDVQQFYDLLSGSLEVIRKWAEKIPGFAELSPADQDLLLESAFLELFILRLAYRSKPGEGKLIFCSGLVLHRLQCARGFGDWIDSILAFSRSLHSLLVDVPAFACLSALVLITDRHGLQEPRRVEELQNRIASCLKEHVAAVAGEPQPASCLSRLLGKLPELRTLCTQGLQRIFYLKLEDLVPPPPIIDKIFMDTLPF
assayProcedure: Gal4-Nur77 hybrid reporter gene assay in HEK293T cells
Type: cell-based
conditions: 10 µM; primary screen; n ≥ 2; ^# not significant vs VP16 control
// Nur77 activity 10μM (mean fold activation) lookup, one value per entry
Write the value in fold as a bare number.

Completed entries (count: 3):
{"structureAsSmiles": "Cc1ccc(C(=O)c2ccc(CC(=O)O)n2C)cc1", "resultNumber": 1.10}
{"structureAsSmiles": "Cc1onc(-c2ccccc2)c1-c1ccc(S(N)(=O)=O)cc1", "resultNumber": 0.90}
{"structureAsSmiles": "Cc1cccc(Nc2ccccc2C(=O)O)c1C", "resultNumber": 0.80}

QUERY: Provide Nur77 activity 10μM (mean fold activation), system Nur77 (Homo sapiens, UniProt P22736), entry CS(=O)(=O)c1ccc(C2=C(c3ccccc3)C(=O)OC2)cc1
RESULT: 0.93

###

// Nur77 activity 10μM (mean fold activation) lookup, one value per entry
studySystem: Nur77 (Homo sapiens, UniProt P22736)
Construct: Nur77 (uniprot entry: hNUR77–P22736, residues 358–598); expressed in transfected cells; host or cells: HEK293T
assayProcedure: Gal4-Nur77 hybrid reporter gene assay in HEK293T cells
Format: cell-based
conditions: 10 µM; primary screen; n ≥ 2; ^# not significant vs VP16 control
Write the value in fold as a bare number.

{"compound": "Cc1ccc(Cl)c(Nc2ccccc2C(=O)O)c1Cl", "resultNumber": 3.01}

QUERY: Give me measured Nur77 activity 10μM (mean fold activation), please, for this compound: O=C(O)c1ccccc1Nc1cccc(C(F)(F)F)c1
RESULT: 0.99

QUERY: Give me measured Nur77 activity 10μM (mean fold activation), please, for this compound: CN1C(C(=O)Nc2ccccn2)=C(O)c2ccccc2S1(=O)=O
RESULT: 1.03

QUERY: Give me measured Nur77 activity 10μM (mean fold activation), please, for this compound: Cc1ccc(Nc2c(F)cccc2Cl)c(CC(=O)O)c1
RESULT: 0.76
